B1: Tetratricopeptide repeat protein 4 (Homo sapiens), O95801 (parent)
chain: MEQPGQDPTSDDVMDSFLEKFQSQPYRGGFHEDQWEKEFEKVPLFMSRAPSEIDPRENPDLACLQSIIFDEERSPEEQAKTYKDEGNDYFKEKDYKKAVISYTEGLKKKCADPDLNAVLYTNRAAAQYYLGNFRSALNDVTAARKLKPCHLKAIIRGALCHLELKHFAEAVNWCDEGLQIDAKEKKLLEMRAKADKLKRIEQRDVRKANLKEKKERNQNEALLQAIKARNIRLSEAACEDEDSASEGLGELFLDGLSTENPHGARLSLDGQGRLSWPVLFLYPEYAQSDFISAFHEDSRFIDHLMVMFGETPSWDLEQKYCPDNLEVYFEDEDRAELYRVPAKSTLLQVLQHQRYFVKALTPAFLVCVGSSPFCKNFLRGRKVYQIR

# Variants of: B1
# study_conditions: with hsp7c_human HSPA8, P11142
# Sequence (P11142 whole entry, looked up): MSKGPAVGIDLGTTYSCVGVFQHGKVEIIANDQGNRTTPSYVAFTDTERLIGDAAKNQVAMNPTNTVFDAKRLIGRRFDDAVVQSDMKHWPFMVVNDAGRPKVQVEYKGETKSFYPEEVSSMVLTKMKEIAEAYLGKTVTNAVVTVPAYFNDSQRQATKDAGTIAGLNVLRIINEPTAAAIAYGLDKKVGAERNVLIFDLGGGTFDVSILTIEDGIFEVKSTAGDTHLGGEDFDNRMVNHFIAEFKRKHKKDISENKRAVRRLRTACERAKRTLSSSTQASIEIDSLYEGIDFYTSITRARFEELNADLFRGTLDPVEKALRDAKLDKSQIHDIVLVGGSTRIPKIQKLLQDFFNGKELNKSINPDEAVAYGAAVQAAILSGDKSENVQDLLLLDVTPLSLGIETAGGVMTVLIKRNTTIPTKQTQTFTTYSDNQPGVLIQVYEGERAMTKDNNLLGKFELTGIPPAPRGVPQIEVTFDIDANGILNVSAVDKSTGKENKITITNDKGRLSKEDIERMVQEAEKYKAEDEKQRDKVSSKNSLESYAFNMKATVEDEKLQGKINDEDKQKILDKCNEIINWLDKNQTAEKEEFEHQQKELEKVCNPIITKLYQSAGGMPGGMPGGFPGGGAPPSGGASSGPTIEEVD
recorded_metric: effect of a mutation on the interaction

>>> print(df.to_string())
   mutation_descriptor                          recorded_metric      test_value
0                N217K  effect of a mutation on the interaction  with no effect
1                 E77A  effect of a mutation on the interaction  with no effect
